assay: in vivo; conditions: iv, 4.37 mg/kg
Reported Endpoint: AUC(0-t) (ng·h/mL)
Provide only the numeric value, understood in ng·h/mL.

// query AUC(0-t) value for entry `COc1cc(C(=O)O)ccc1NC(=O)[C@@H]1N[C@@H](CC(C)(C)C)[C@](C#N)(c2ccc(Cl)cc2F)[C@H]1c1cccc(Cl)c1F` 20900

---

assay: in vivo; conditions: iv, 4.37 mg/kg
Reported Endpoint: half-life (h)
Provide only the numeric value, understood in h.

// query half-life value for entry `COc1cc(C(=O)O)ccc1NC(=O)[C@@H]1N[C@@H](CC(C)(C)C)[C@](C#N)(c2ccc(Cl)cc2F)[C@H]1c1cccc(Cl)c1F` 5.07

These data points were gathered from patent US8993614B2.
